Sourced from ChEMBL document CHEMBL1136765

Can you tell me pKb for the items I'm about to list?
- test_system: Alpha-1B adrenergic receptor (Rattus norvegicus) (UniProt P15823)
- Sequence (whole entry): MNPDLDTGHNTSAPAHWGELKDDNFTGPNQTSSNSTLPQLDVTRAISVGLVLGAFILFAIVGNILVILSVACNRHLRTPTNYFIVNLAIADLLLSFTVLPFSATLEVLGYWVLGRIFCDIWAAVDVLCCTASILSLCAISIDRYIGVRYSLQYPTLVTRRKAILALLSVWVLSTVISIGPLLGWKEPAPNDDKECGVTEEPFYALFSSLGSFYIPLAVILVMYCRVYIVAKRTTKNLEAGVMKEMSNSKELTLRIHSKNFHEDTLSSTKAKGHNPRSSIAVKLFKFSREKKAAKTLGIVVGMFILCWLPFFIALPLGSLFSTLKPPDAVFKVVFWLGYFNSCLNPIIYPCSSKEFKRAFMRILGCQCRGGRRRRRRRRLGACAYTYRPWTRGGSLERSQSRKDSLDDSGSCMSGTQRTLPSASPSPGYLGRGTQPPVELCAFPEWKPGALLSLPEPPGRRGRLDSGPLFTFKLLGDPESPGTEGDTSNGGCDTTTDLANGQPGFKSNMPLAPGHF
- assay_comment: Inhibition of (-)-phenylephrine-induced contraction of rat spleen (Alpha-1B adrenergic receptor )
- Type: functional, tissue-based
One number for each entry.

q: Could you share which pKb value was measured for O=C(O)C(=O)O.c1ccc(OCCNCC2COC(c3ccccc3)(c3ccccc3)O2)cc1 (centres undefined) ?
a: 5.86

q: Repeat for the following molecule: COc1ccccc1N1CCN(CCN2C(=O)CC3(CCCC3)CC2=O)CC1
a: 7.48

q: Repeat for the following molecule: COc1cccc(OC)c1OCCNCC1CO[C@@H](Cc2ccccc2)O1.O=C(O)C(=O)O (some centres undefined)
a: 5.45

q: Repeat for the following molecule: COc1cccc(OC)c1OCCNCC1CO[C@@H](c2ccccc2)O1.O=C(O)C(=O)O (some centres undefined)
a: 6.19

q: Repeat for the following molecule: COc1cccc(OC)c1OCCNCC1CO[C@H](c2cccc3ccccc23)O1.O=C(O)C(=O)O (some centres undefined)
a: 6.38

q: Repeat for the following molecule: COc1cccc(OC)c1OCCNCC1CO[C@@H](c2cccc3ccccc23)O1.O=C(O)C(=O)O (some centres undefined)
a: 6.38

Hi, could you look up pKb for each item in my list?
1. COc1cccc(OC)c1OCCNCC1COC(c2ccccc2)(c2ccccc2)O1.O=C(O)C(=O)O (centres undefined)
2. O=C(O)C(=O)O.c1ccc(OCCNCC2CO[C@H](c3ccccc3)O2)cc1 (some centres undefined)
3. COc1cccc(OC)c1OCCNCC1CO[C@](C)(c2ccccc2)O1.O=C(O)C(=O)O (some centres undefined)

a:
5.89
6.3
5.56
